molecular target: GRM1 (Homo sapiens, UniProt Q13255); construct: purchased Promega (in-house HiBiT-GPCR construct library, NanoBRET); test: NanoBRET screen HiBiT-GRM1 in HEK293; assay type: binding; settings: GRM1; tracer 0.1μM
Sequence (Q13255 19-1194): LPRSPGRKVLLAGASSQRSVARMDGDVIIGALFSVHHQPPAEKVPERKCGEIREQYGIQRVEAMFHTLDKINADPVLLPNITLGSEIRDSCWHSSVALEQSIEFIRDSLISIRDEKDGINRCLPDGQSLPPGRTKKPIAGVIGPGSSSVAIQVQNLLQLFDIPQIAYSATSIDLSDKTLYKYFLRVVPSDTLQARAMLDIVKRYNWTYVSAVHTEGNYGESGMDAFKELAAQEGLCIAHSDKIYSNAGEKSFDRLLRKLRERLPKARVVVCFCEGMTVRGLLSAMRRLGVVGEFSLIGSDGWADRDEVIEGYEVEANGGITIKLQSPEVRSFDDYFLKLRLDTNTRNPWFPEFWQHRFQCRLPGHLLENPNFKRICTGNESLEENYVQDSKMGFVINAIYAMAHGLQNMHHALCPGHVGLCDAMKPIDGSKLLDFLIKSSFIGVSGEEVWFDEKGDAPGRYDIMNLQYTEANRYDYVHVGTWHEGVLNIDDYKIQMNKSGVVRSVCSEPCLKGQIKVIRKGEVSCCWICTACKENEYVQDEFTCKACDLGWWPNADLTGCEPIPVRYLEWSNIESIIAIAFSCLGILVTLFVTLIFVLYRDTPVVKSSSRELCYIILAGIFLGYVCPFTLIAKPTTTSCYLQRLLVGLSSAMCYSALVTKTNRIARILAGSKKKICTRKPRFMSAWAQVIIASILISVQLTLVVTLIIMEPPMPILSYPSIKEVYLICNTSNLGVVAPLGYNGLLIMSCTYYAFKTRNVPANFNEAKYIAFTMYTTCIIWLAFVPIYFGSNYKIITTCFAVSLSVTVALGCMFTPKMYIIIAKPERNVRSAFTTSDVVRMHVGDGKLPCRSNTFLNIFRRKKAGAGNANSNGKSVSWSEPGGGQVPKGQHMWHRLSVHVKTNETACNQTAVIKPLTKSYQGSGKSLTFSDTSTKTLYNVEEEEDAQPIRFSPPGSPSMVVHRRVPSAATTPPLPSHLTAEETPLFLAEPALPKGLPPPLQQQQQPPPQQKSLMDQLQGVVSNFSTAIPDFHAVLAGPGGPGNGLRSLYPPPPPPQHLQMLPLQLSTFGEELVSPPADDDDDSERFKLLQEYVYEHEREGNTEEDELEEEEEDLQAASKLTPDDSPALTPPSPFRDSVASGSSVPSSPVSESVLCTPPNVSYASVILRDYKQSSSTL
Each entry below carries its reported NanoBRET Fold Response.
Write the value as a bare number.

Solved entries (count: 2):
MOLECULE	TARGET_OR_TEST_SYSTEM	NanoBRET Fold Response
Cc1cc2c(s1)Nc1ccccc1N=C2N1CCN(CCCNC(=O)CCOCCOCCOCCOCCNC(=O)CCc2ccc3n2[B-](F)(F)[N+]2=C(c4ccc[nH]4)C=CC2=C3)CC1 [Olanzapine-a-2-NB590]	GRM1 (Homo sapiens, UniProt Q13255)	0.89
COc1ccccc1N1CCN(CCCCN2C(=O)c3ccc(CNC(=O)CCOCCNC(=O)c4ccc(CNC(=O)CCc5ccc6n5[B-](F)(F)[N+]5=C(c7ccc[nH]7)C=CC5=C6)cc4)cc3C2=O)CC1 [NAN-190-3-NB590]	GRM1 (Homo sapiens, UniProt Q13255)	1.03

Now take the following molecule into account.
q: In one line, give reported NanoBRET Fold Response of the entry CC(C)N(CC[C@H](c1ccccc1)c1cc(CCNC(=O)c2ccc(CNC(=O)CCc3ccc4n3[B-](F)(F)[N+]3=C(c5ccc[nH]5)C=CC3=C4)cc2)ccc1O)C(C)C [Tolterodine-BZ-NB590] .
a: 0.88

---

molecular target: CYSLTR1 (Homo sapiens); construct: purchased Promega (in-house HiBiT-GPCR construct library, NanoBRET); test: NanoBRET screen HiBiT-CYSLTR1 in HEK293; assay type: binding; details: CYSLTR1; tracer 1μM
Sequence (Q9Y271 whole entry): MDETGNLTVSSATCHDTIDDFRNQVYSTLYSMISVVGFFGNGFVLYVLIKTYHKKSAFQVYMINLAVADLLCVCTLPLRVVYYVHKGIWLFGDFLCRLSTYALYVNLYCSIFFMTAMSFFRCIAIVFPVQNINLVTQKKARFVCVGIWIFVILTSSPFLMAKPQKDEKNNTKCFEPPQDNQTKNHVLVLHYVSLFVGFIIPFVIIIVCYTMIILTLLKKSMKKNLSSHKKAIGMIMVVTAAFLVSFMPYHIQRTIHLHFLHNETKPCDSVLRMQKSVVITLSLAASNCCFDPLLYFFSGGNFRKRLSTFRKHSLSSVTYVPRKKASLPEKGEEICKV
Each entry below carries its reported NanoBRET Fold Response.
Write the value as a bare number.

Solved entries (count: 3):
COMPOUND	TARGET_OR_TEST_SYSTEM	MEASURED_METRIC	MEASURED
COc1ccccc1N1CCN(CCCCN2C(=O)c3ccc(CNC(=O)CCOCCOCCOCCOCCNC(=O)CCc4ccc5n4[B-](F)(F)[N+]4=C(c6ccc[nH]6)C=CC4=C5)cc3C2=O)CC1	CYSLTR1 (Homo sapiens)	NanoBRET Fold Response	1.02
N#CN=C(NCCCOc1cccc(CN2CCCCC2)c1)NCCNC(=O)CCOCCOCCOCCOCCNC(=O)CCc1ccc2n1[B-](F)(F)[N+]1=C(c3ccc[nH]3)C=CC1=C2	CYSLTR1 (Homo sapiens)	NanoBRET Fold Response	1.00
Cc1nc2n(c(=O)c1CCN1CCC(c3noc4cc(F)ccc34)CC1)CCCC2OC(=O)NCCOCCOCCOCCOCCNC(=O)CCc1ccc2n1[B-](F)(F)[N+]1=C(c3ccc[nH]3)C=CC1=C2 (stereo not drawn)	CYSLTR1 (Homo sapiens)	NanoBRET Fold Response	0.94

q: In one line, give reported NanoBRET Fold Response of the entry CC(C)N(CC[C@H](c1ccccc1)c1cc(CCNC(=O)CCOCCOCCOCCOCCNC(=O)CCc2ccc3n2[B-](F)(F)[N+]2=C(c4ccc[nH]4)C=CC2=C3)ccc1O)C(C)C .
a: 0.91

q: In one line, give reported NanoBRET Fold Response of the entry Cc1cc2c(s1)Nc1ccccc1N=C2N1CCN(CCCNC(=O)CCOCCOCCOCCOCCNC(=O)CCc2ccc3n2[B-](F)(F)[N+]2=C(c4ccc[nH]4)C=CC2=C3)CC1 .
a: 1.06

q: In one line, give reported NanoBRET Fold Response of the entry CCCn1c(=O)c2[nH]c(-c3ccc(OCC(=O)NCCNC(=O)CCOCCNC(=O)c4ccc(CNC(=O)CCc5ccc6n5[B-](F)(F)[N+]5=C(c7ccc[nH]7)C=CC5=C6)cc4)cc3)nc2n(CCC)c1=O .
a: 1.08

q: In one line, give reported NanoBRET Fold Response of the entry COc1ccccc1N1CCN(CCCCN2C(=O)c3ccc(CNC(=O)CCOCCNC(=O)c4ccc(CNC(=O)CCc5ccc6n5[B-](F)(F)[N+]5=C(c7ccc[nH]7)C=CC5=C6)cc4)cc3C2=O)CC1 .
a: 1.30

q: In one line, give reported NanoBRET Fold Response of the entry O=C(CCOCCOCCOCCOCCNC(=O)CCc1ccc2n1[B-](F)(F)[N+]1=C(c3ccc[nH]3)C=CC1=C2)NCCCN1CCN(C2=Nc3ccccc3Oc3ccc(Cl)cc32)CC1 .
a: 1.02

q: In one line, give reported NanoBRET Fold Response of the entry O=C(CCc1ccc2n1[B-](F)(F)[N+]1=C(c3ccc[nH]3)C=CC1=C2)NCCOCCOCCNC(=O)OCCOCCN1CCN(C2=Nc3ccccc3Sc3ccccc32)CC1 .
a: 1.08

q: In one line, give reported NanoBRET Fold Response of the entry CC(C)N(CC[C@H](c1ccccc1)c1cc(CCNC(=O)c2ccc(CNC(=O)CCc3ccc4n3[B-](F)(F)[N+]3=C(c5ccc[nH]5)C=CC3=C4)cc2)ccc1O)C(C)C .
a: 0.99

q: In one line, give reported NanoBRET Fold Response of the entry CN(C)CCC=C1c2ccccc2CCc2ccc(C(=O)NCCNC(=O)CCOCCOCCOCCOCCNC(=O)CCc3ccc4n3[B-](F)(F)[N+]3=C(c5ccc[nH]5)C=CC3=C4)cc21 .
a: 1.01

q: In one line, give reported NanoBRET Fold Response of the entry O=C(CCc1ccc2n1[B-](F)(F)[N+]1=C(c3ccc[nH]3)C=CC1=C2)NCc1ccc(C(=O)NCCOCCC(=O)N[C@@H]2CC[C@@]3(O)[C@H]4Cc5ccc(O)c6c5[C@@]3(CCN4CC3CC3)[C@H]2O6)cc1 [Naltrexone-3-NB590] .
a: 1.09
